FYI, the data here is from patent US20240228562A1.

Biological target: T1, human CTGF (Homo sapiens, UniProt P29279)
T1 construct: purchased Creative Biomart
T1 sequence (P29279 with tags, fused parts or gaps H83D): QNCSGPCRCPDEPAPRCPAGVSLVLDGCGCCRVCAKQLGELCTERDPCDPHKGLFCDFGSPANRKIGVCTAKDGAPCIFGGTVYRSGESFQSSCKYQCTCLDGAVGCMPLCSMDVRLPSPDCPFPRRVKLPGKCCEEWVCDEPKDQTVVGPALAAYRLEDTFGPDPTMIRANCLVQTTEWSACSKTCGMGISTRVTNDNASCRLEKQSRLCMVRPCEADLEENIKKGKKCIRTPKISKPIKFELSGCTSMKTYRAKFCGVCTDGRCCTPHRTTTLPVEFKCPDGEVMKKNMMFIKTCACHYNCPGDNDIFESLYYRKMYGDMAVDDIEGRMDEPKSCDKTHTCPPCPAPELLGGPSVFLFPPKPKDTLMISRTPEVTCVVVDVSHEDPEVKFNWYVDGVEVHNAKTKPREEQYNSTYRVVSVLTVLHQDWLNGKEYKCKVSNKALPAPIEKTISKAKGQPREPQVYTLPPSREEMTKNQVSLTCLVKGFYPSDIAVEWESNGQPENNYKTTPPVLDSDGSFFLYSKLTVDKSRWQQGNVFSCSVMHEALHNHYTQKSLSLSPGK
Test: SPR binding kinetics and affinity, human CTGF
Settings: 25° C., 1:1 binding model
Procedure: Surface plasmon resonance (SPR) was used to measure binding kinetics and affinity of the representative lipocalin muteins disclosed herein. The binding of exemplary lipocalin muteins to human (Creative Biomart), cynomolgus, rat (R&D Systems) and mouse CTGF (Abbexa) was determined by SPR using a Biacore instrument (Cytiva, formerly GE Healthcare). Some targets were fused to a human IgG1 Fc tag, and captured via the anti-human IgG antibody kit, others were directly immobilized. […]
Here, each record is paired with measured human CTGF koff data.
Write the number in s⁻¹ without appending the unit.

Examples with answers:
SEQ ID NO: 11: optimized CTGF-binding hNGAL lipocalin mutein (protein, lipocalin mutein) QDSTSDLIPAPPLSKVPLQQNFQDNQFQGKWYVVGLAGNAILREDKQPAKMFATIYELKEDKSYDVTSVRFEAKSCSYTSKTFVPGSQPGEFTAGNIKSAPGQTSTLVRVVSTNYNQHAMVFFKHVSQNRETFVITLYGRTKELTSELKENFIRFSKSLGLPENHIVFPVPIDQCIDG; 0.000108
SEQ ID NO: 24: optimized CTGF-binding hNGAL lipocalin mutein (protein, lipocalin mutein) QDSTSDLIPAPPLSKVPLQQNFQDNQFQGKWYVVGVAGNAILRTDKQPAKMFATIYELKEDKSYDVTSVRFEAKSCKYTIKTFVPGSQPGEFTAGNIKSAPGQTSTLVRVVSTNYNQHAMVFFKHVSQNREIFVITLYGRTKELTSELKENFIRFSKSLGLPENHIVFPVPIDQCIDG; 1.41e-05

Kindly review the next molecule as well.
Endpoint output: human CTGF koff of SEQ ID NO: 6: optimized CTGF-binding hNGAL lipocalin mutein (protein, lipocalin mutein) QDSTSDLIPAPPLSKVPLQQNFQDNQFQGKWYVVGRAGNNQLREDKSPPKMWATIYELKEDKSYDVTHVHFSTKKCRYIIDTFVPGSQPGEFTAGAIKSGPGLTSPLVRVVSTNYNQHAMVFFKWVTQNREWFTITLYGRTKELTSELKENFIRFSKSLGLPENHIVFPVPIDQCIDG . Value?
0.000149
